molecular target: p38 MAP kinase (Homo sapiens); construct: made in house; host or cells: E. coli (co-expressed with SEK-1 and MEKK); test: Inhibition of p-38 (MAP) kinase in vitro assay (transfer of γ-33P from ATP to Myelin Basic Protein); type: biochemical; details: phosphorylated recombinant p38 MAP kinase, MBP substrate, γ-33P-ATP, 30° C.; read-out: p-38 inhibitory activity, IC50
Sequence (Q16539 whole entry): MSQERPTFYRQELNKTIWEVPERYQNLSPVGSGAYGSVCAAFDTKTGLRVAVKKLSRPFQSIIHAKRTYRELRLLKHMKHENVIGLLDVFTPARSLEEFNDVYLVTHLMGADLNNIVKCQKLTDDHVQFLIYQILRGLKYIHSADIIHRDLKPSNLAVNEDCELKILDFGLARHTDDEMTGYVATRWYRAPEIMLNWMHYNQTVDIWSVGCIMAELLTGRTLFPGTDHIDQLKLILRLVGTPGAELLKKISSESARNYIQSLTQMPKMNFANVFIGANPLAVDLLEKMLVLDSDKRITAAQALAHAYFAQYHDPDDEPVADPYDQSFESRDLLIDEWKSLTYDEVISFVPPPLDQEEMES
pIC50: −log10 of the molar value.
reported-endpoint: pIC50

{"compound": "COc1cccc(C(=O)c2cc(-c3cccnc3)n(-c3ccc(F)cc3)c2N)c1 [Cpd 2]", "reported-endpoint": "pIC50", "measured-value": 6.77}

I: Nc1c(C(=O)c2cccc(OC[C@H](O)CO)c2)cc(-c2cccnc2)n1-c1ccc(F)cc1 [Cpd 4]
II: Nc1c(C(=O)c2cccc(O)c2)cc(-c2cccnc2)n1-c1ccc(F)cc1 [Cpd 3]
Incoming: Min pIC50? I | II Reply briefly: the label of your chosen item.
Outgoing: II
